System: 64cp5 testicular cancer cells
test-details: Cytotoxic activity of oxovanadium(IV) compounds, 64cp5
Type: cell-based, human
recorded-conditions: read-out: Cytotoxic Activity 64cp5
property-label: IC50

Please report the recorded IC50 for `CC(=O)c1cc(Br)ccc1[O][V](=[O])[O]c1ccc(Br)cc1C(C)=O` .
> 100 µM

----------
Tested on: Tera-2 and Ntera-2 human testicular cancer cell lines
test-details: MTT cytotoxicity assay, text statements for both testicular cancer cell lines
Type: cell-based
recorded-conditions: Tera-2 and Ntera-2, tested side-by-side, up to 250 μM; read-out: IC50 (cytotoxicity, two testicular cancer cell lines)
pIC50: −log10 of the molar value.
property-label: pIC50

Form entry - test system: Tera-2 and Ntera-2 human testicular cancer cell lines; read-out: pIC50; molecule: O=S(=O)([O-])[O-].[O]=[V+2] [VDSO4, vanadyl(IV) sulfate, reference compound]
< 3.60

----------
Test system: Ntera-2 testicular cancer cells
test-details: Flow cytometric TUNEL apoptosis assay, NTERA-2 cells
Type: cell-based, human
recorded-conditions: 24 h, TUNEL-positive nuclei
# maps each entry to its % Apoptosis at 100 μM NTERA-2

Take a look at these entries with their results.
>>> df
                            smiles_notation       endpoint_result
0  C1=C[CH]([V+2][CH]2C=CC=C2)C=C1.[N-]=C=[Se].[N-]=C=[Se]  99.6 ± 0.2 (N = 4) %
1  [Br-].[Br-].[V+2].c1cc[cH-]c1.c1cc[cH-]c1         93 (93, 94) %
2  [Cl-].[N-]=C=O.[V+2].c1cc[cH-]c1.c1cc[cH-]c1         98 (97, 99) %

Please report the recorded % Apoptosis at 100 μM NTERA-2 for `[O-]c1ccccc1[O-].[V+2].c1cc[cH-]c1.c1cc[cH-]c1` .
12 (9, 15) %
